Cited source for all entries: patent US20110124888A1

Biological target: beta-amyloid 42 (Aβ42) (Homo sapiens, UniProt P05067)
Construct: Beta-amyloid 42 (Aβ42) was dissolved in dimethylsulfoxide (DMSO)
Sequence (P05067 672-713 limits assumed): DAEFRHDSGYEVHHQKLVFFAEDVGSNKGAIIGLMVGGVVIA
Experiment: Inhibitory effect on the formation of beta-amyloid fibrils in vitro (ThT fluorescence assay)
Assay type: biochemical
Settings: In vitro ThT analysis (Aβ42: 25 μM); experiment of Table 2
Value type: pIC50
In simple prose, pIC50 is minus the logarithm base ten of a concentration in moles per litre.

Prompt: Look up pIC50: CCN(CC)c1ccc(C=Cc2cc3cc(OC)ccc3o2)cc1 [Compound 35]
Completion: 5.93

Prompt: State the recorded pIC50 for this entry: CCN(CC)c1ccc(C=Cc2cc3cc(O)ccc3o2)cc1 [Compound 56]
Completion: 5.89

Prompt: Fill in the blank: the reported pIC50 of COc1ccc(C=Cc2cc3cc(OC)ccc3o2)cc1 [Compound 37, 5-methoxy-2-(4-methoxystyryl)benzofuran] is ____.
Completion: 6.15
